Each recorded value in this set is attributed to BindingDB's records for doi:10.1111/j.1747-0285.2009.00860.x.

Target chain: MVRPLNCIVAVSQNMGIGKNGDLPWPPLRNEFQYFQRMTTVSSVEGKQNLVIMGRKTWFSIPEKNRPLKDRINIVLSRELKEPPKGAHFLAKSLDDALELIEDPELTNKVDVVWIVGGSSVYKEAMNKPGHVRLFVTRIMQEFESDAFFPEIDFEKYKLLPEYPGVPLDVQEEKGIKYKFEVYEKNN
value-kind: IC50 (µM)

> print(dat)
                         smiles.record  measurement.unit  test.value
1  NC1=NC2(CCCC2)N(OCCc2ccccc2)C(N)=N1                µM       0.031

A = NC1=NC2(CCCC2)N(OCCCc2ccccc2)C(N)=N1
B = NC1=NC2(CCCCC2)N(OCCCCOc2ccccc2)C(N)=N1
stdin: Of A and B , whose reported IC50 is numerically smaller? When you have decided, please share the label of that item.
stdout: A
(A: 0.0201 µM, B: 0.155 µM)

1 = CN(CCCON1C(N)=NC(N)=NC12CCCCC2)c1ccccc1
2 = NC1=NC2(CCCCC2)N(OCCCOc2ccccc2)C(N)=N1
stdin: Lab notebook, comparison: 1 versus 2 , higher IC50 goes to which? When you have decided, please share the label of that item.
stdout: 1
(1: 0.0414 µM, 2: 0.0069 µM)
